These measurements were taken from patent US20210032351A1.

- target-system: human EGFRvIII-hFc protein (human) (UniProt P00533)
- assay-explanation: ELISA, EGFRvIII-hFc coated
property-name: Maximum OD450 value (OD450)
Give bare numbers, in OD450.

binder	test-value
Humanized antibody h75G7C6-6 (antibody, human IgG1, V domains shown) VH: QVQLVQSGAEVKKPGASVKVSCKASGYTFTDYNMDWVRQAPGQGLEWMGDINPNNADTIYNQKFKGRVTMTRDTSTSTVYMELSSLRSEDTAVYYCARGDYDGYYPVYYAMDYWGQGTTVTVSS VL: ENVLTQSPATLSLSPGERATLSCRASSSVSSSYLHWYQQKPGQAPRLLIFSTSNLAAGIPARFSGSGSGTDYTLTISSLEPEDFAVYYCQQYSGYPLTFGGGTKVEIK	3.2
Humanized antibody h75G7C6-3 (antibody, human IgG1, V domains shown) VH: EVQLVQSGAEVKKPGASVKVSCKASGYTFTDYNMDWVKQAPGQGLEWIGDINPNNADTIYNQKFKGRVTLTVDKSTSTVYMELSSLRSEDTAVYYCARGDYDGYYPVYYAMDYWGQGTTVTVSS VL: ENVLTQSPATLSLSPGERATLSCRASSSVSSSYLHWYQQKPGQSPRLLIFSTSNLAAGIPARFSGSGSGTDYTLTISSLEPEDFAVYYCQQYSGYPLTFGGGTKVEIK	3.44

QUERY: Input Humanized antibody h75G7C6-7 (antibody, human IgG1, V domains shown) VH: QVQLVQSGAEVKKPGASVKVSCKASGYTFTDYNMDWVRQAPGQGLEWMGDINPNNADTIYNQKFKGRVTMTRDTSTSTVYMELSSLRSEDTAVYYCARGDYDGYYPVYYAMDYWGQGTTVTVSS VL: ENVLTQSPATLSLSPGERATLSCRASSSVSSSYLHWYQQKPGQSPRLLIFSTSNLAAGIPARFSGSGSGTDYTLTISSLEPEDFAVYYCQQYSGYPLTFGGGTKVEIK , output reported Maximum OD450 value.
RESULT: 2.97
